SYSTEM: Factor X (FX), P00742
Sequence (P00742 whole entry, looked up): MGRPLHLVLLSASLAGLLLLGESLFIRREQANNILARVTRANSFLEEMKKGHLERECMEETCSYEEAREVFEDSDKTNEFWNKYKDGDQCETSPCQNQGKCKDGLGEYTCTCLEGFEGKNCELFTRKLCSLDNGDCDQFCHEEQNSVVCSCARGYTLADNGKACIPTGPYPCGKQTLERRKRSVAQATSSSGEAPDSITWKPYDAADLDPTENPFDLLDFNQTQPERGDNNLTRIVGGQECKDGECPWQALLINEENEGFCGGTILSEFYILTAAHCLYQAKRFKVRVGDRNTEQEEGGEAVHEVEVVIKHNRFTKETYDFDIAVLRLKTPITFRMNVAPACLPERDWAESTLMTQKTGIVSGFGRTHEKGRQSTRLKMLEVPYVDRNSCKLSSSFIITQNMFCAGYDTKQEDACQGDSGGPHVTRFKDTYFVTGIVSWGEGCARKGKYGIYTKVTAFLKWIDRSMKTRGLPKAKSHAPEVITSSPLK
PROPERTY: KM of FX activation by FIXa in the Xase complex (FVIIIa, PC/PS vesicles, Ca2+) (µM)
Record the value in µM, omitting the unit from your answer.

### Prompt What value of KM of FX activation by FIXa in the Xase complex (FVIIIa, PC/PS vesicles, Ca2+) has been recorded for this entry: FIXa variant D203N/F205T/R338E/R403E (mature FIX numbering) (protein) chain 1: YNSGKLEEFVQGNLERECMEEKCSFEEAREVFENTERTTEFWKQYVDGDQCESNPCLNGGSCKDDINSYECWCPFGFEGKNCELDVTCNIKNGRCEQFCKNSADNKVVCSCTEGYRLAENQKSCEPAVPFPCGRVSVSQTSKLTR chain 2: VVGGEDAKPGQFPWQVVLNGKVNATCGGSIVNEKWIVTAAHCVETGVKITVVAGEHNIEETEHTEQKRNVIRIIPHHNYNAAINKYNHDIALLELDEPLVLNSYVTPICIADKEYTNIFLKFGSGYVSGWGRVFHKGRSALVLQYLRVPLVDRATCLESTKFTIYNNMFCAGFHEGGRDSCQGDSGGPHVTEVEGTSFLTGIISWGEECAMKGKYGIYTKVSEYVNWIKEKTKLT
### Response 0.0511
